# key: entry, value: Corn plant response rating
tested on: corn; assay: Test C preemergence; format: in vivo, Zea mays; conditions: 500 g ai/ha, preemergence; 0 to 100 scale (0 no effect, 100 complete control)

[
  {
    "compound": "CCOC[C@H]1CN(C(=O)c2cc(-n3cnc(C(C)(C)C)n3)ccc2C)c2cccc(Cl)c2O1",
    "target-under-test": "corn",
    "Corn plant response rating": 10
  },
  {
    "compound": "CC(C)c1ncn(-c2cccc(C(=O)N3CC(C(F)(F)F)Oc4c(Cl)cccc43)c2)n1 (single isomer, unassigned)",
    "target-under-test": "corn",
    "Corn plant response rating": 10
  },
  {
    "compound": "CCc1ncn(-c2cccc(C(=O)N3CC(C(F)(F)F)Oc4c(C)cccc43)c2)n1 (stereo not shown)",
    "target-under-test": "corn",
    "Corn plant response rating": 30
  },
  {
    "compound": "Cc1ncn(-c2ccc(C)c(C(=O)N3CC(C(F)(F)F)Oc4c(Cl)cccc43)c2)n1 (stereo not shown)",
    "target-under-test": "corn",
    "Corn plant response rating": 60
  },
  {
    "compound": "COC(C)(C)c1ncn(-c2ccc(C)c(C(=O)N3C[C@H](C)Oc4c(Cl)cccc43)c2)n1",
    "target-under-test": "corn",
    "Corn plant response rating": 60
  },
  {
    "compound": "Cc1cccc2c1O[C@@H](C)CN2C(=O)c1cccc(-n2cnc(N)n2)c1",
    "target-under-test": "corn",
    "Corn plant response rating": 0
  },
  {
    "compound": "CCc1ncn(-c2cc(C(=O)N3CC(C(F)(F)F)Oc4c(Cl)cccc43)ccn2)n1 (racemic)",
    "target-under-test": "corn",
    "Corn plant response rating": 50
  }
]

###

test system: barnyardgrass; experiment: Test C preemergence; assay type: in vivo, Echinochloa crusgalli; settings: 500 g ai/ha, preemergence; 0 to 100 scale (0 no effect, 100 complete control)
Items are presented alongside their recorded Barnyardgrass plant response rating.
readout-kind: Barnyardgrass plant response rating

[
  {
    "compound": "Cc1ccc(-n2cnc(CS(C)(=N)=O)n2)cc1C(=O)N1C[C@H](C)Oc2c(Cl)cccc21 (stereo partly shown)",
    "test-value": 70
  },
  {
    "compound": "CCOC(=O)c1ncn(-c2ccc(C)c(C(=O)N3C[C@H](C)Oc4c(Cl)cccc43)c2)n1",
    "test-value": 60
  },
  {
    "compound": "COC(C)c1ncn(-c2ccc(C)c(C(=O)N3CC(C)Oc4c(Cl)cccc43)c2)n1 (mixture of isomers)",
    "test-value": 100
  },
  {
    "compound": "Cc1ccc(-n2cnc(C(C)O)n2)cc1C(=O)N1CC(C)Oc2c(Cl)cccc21 (mixture of isomers)",
    "test-value": 100
  }
]

###

tested on: wheat; experiment: Test C preemergence; format: in vivo, Triticum aestivum; settings: 500 g ai/ha, preemergence; 0 to 100 scale (0 no effect, 100 complete control)

[
  {
    "compound": "CCc1ncn(-c2ccc(C)c(C(=O)N3CC(C(F)(F)F)Oc4c(Cl)cccc43)c2)n1 (racemic)",
    "Wheat plant response rating": 50
  },
  {
    "compound": "CCOC[C@H]1CN(C(=O)c2cc(-n3cnc(C(C)(C)C)n3)cc3c2OCCO3)c2cccc(Cl)c2O1",
    "Wheat plant response rating": 20
  },
  {
    "compound": "CCc1cc(C(=O)N2C[C@H](C)Oc3c(Cl)cccc32)cc(-n2cncn2)c1",
    "Wheat plant response rating": 0
  },
  {
    "compound": "COc1ccc(-n2cnc(C3CC3)n2)cc1C(=O)N1C[C@H](C)Oc2c(Cl)cccc21",
    "Wheat plant response rating": 90
  },
  {
    "compound": "CCOc1ncn(-c2cccc(C(=O)N3C[C@H](C)Oc4c(Cl)cccc43)c2)n1",
    "Wheat plant response rating": 20
  },
  {
    "compound": "Cc1ccc(-n2cnc(C(C)C)n2)cc1C(=O)N1CC(C(F)(F)F)Oc2c(Cl)cccc21 (single isomer, unassigned) [Compound 291]",
    "Wheat plant response rating": 50
  },
  {
    "compound": "CC(C)c1ncn(-c2cccc(C(=O)N3CC(C(F)(F)F)Oc4c(Cl)cccc43)c2)n1 (stereo not drawn) [Compound 348]",
    "Wheat plant response rating": 80
  },
  {
    "compound": "COc1ccc(-n2cnc(C3CCC3)n2)cc1C(=O)N1C[C@H](C)Oc2c(Cl)cccc21",
    "Wheat plant response rating": 80
  },
  {
    "compound": "Cc1ccc(-n2cnc(C3(C#N)CC3)n2)cc1C(=O)N1C[C@H](C)Oc2c(Cl)cccc21",
    "Wheat plant response rating": 20
  },
  {
    "compound": "COc1ncn(-c2cccc(C(=O)N3C[C@H](C)Oc4c(Cl)cccc43)c2)n1",
    "Wheat plant response rating": 0
  },
  {
    "compound": "Cc1ccc(-n2cnc(C(C)C)n2)cc1C(=O)N1CC(C(F)(F)F)Oc2c(Cl)cccc21 (stereo not drawn) [Compound 354]",
    "Wheat plant response rating": 90
  },
  {
    "compound": "CC(C)c1ncn(-c2cc(C(=O)N3CC(C(F)(F)F)Oc4c(Cl)cccc43)ccn2)n1 (single isomer, unassigned)",
    "Wheat plant response rating": 0
  },
  {
    "compound": "CC(C)(C)c1ncn(-c2cc(C(=O)N3CC(C(F)(F)F)Oc4c(Cl)cccc43)ccn2)n1 (stereo not drawn)",
    "Wheat plant response rating": 20
  },
  {
    "compound": "Cc1cccc2c1OC(C(F)(F)F)CN2C(=O)c1cccc(-n2cnc(C(C)C)n2)c1 (single isomer, unassigned)",
    "Wheat plant response rating": 40
  },
  {
    "compound": "Cc1ncn(-c2cc(C(=O)N3CC(C(F)(F)F)Oc4c(Cl)cccc43)ccn2)n1 (stereo not drawn)",
    "Wheat plant response rating": 30
  }
]

###

system: pigweed, palmer; assay: Test C postemergence; type: in vivo, Amaranthus palmeri; conditions: 500 g ai/ha, postemergence, 10 days, 0 to 100 scale (0 no effect, 100 complete control)
Source text: […]

[
  {
    "compound": "COC[C@H]1CN(C(=O)c2cc(-n3cnc(C4CCC4)n3)cc3c2OCCO3)c2cccc(Cl)c2O1 [Compound 380]",
    "Plant response rating, Pigweed, Palmer": 100
  },
  {
    "compound": "Cc1ccc(-n2cnc(C(C)(C)C)n2)cc1C(=O)N1CC(C(F)(F)F)Oc2c(Cl)cccc21 (stereo not drawn) [Compound 350]",
    "Plant response rating, Pigweed, Palmer": 100
  },
  {
    "compound": "CCOCC1CN(C(=O)c2cc(-n3cnc(C4CCC4)n3)ccc2OC)c2cccc(Cl)c2O1 (stereo not drawn) [Compound 377]",
    "Plant response rating, Pigweed, Palmer": 100
  },
  {
    "compound": "CCOC[C@H]1CN(C(=O)c2cc(-n3cnc(C(C)C)n3)cc3c2OCO3)c2cccc(Cl)c2O1 [Compound 400]",
    "Plant response rating, Pigweed, Palmer": 100
  },
  {
    "compound": "Cc1cccc2c1OC(C(F)(F)F)CN2C(=O)c1ccnc(-n2cnc(C(C)C)n2)c1 (stereo not drawn) [Compound 327]",
    "Plant response rating, Pigweed, Palmer": 50
  },
  {
    "compound": "CC(C)Oc1ncn(-c2cccc(C(=O)N3C[C@H](C)Oc4c(Cl)cccc43)c2)n1 [Compound 312]",
    "Plant response rating, Pigweed, Palmer": 50
  }
]

###

tested on: corn; assay: Test C postemergence; format: in vivo, Zea mays; conditions: 125 g ai/ha, postemergence, 10 days; 0 to 100 scale, 0 no effect, 100 complete control
readout-kind: Plant response rating, Corn

[
  {
    "smiles-data": "Cc1cccc2c1O[C@@H](C)CN2C(=O)c1cccc(-n2cnc(-c3ccccc3)n2)c1",
    "readout-kind": "Plant response rating, Corn",
    "test-value": 20
  },
  {
    "smiles-data": "CCc1ncn(-c2ccc(OC)c(C(=O)N3C[C@H](COC)Oc4c(Cl)cccc43)c2)n1",
    "readout-kind": "Plant response rating, Corn",
    "test-value": 70
  },
  {
    "smiles-data": "CCc1ccc(-n2cnc(C(C)(C)O)n2)cc1C(=O)N1C[C@H](C)Oc2c(Cl)cccc21",
    "readout-kind": "Plant response rating, Corn",
    "test-value": 90
  },
  {
    "smiles-data": "Cc1cc(-n2cnc(C(C)C)n2)cc(C(=O)N2C[C@H](C)Oc3c(Cl)cccc32)c1Cl",
    "readout-kind": "Plant response rating, Corn",
    "test-value": 10
  }
]

###

system: ducksalad; test: Test D flooded paddy test; type: in vivo, Heteranthera limosa; conditions: 250 g ai/ha, applied to paddy water, visual rating after 13 to 14 days, scale 0 to 100 (0 no effect, 100 complete control)
Kind request: treat 50 as inclusive, so Plant response rating, Ducksalad (Flood) at 50 or higher is yes, anything lower is no.

[
  {
    "compound": "CC(C)n1cnc(-c2cccc(C(=O)N3C[C@H](C)Oc4c(Cl)cccc43)c2)n1",
    "target-under-test": "ducksalad",
    "answer-label": "no"
  },
  {
    "compound": "CC(C)c1ncn(-c2cc(OC(F)F)c(OC(F)F)c(C(=O)N3C[C@H](C)Oc4c(Cl)cccc43)c2)n1",
    "target-under-test": "ducksalad",
    "answer-label": "no"
  },
  {
    "compound": "COc1cc(C(=O)N2C[C@H](C)Oc3c(Cl)cccc32)cc(-n2cnc(C3CC3)n2)c1",
    "target-under-test": "ducksalad",
    "answer-label": "yes"
  },
  {
    "compound": "C[C@H]1CN(C(=O)c2cc(-n3cncn3)cc3c2OCCO3)c2cccc(Cl)c2O1",
    "target-under-test": "ducksalad",
    "answer-label": "yes"
  },
  {
    "compound": "COc1ccc(-n2cncn2)cc1C(=O)N1C[C@H](C)Oc2c(Cl)cccc21",
    "target-under-test": "ducksalad",
    "answer-label": "yes"
  },
  {
    "compound": "COc1cc(C(=O)N2C[C@H](C)Oc3c(Cl)cccc32)cc(-n2cnc(C3CCC3)n2)c1",
    "target-under-test": "ducksalad",
    "answer-label": "yes"
  },
  {
    "compound": "CC(C)c1ncn(-c2cc3c(c(C(=O)N4C[C@H](C)Oc5c(Cl)cccc54)c2)CCC3)n1",
    "target-under-test": "ducksalad",
    "answer-label": "no"
  },
  {
    "compound": "CCOC[C@H]1CN(C(=O)c2cc(-n3cnc(CC)n3)ccc2C)c2cccc(Cl)c2O1",
    "target-under-test": "ducksalad",
    "answer-label": "yes"
  },
  {
    "compound": "CCOC[C@H]1CN(C(=O)c2cc(-n3cnc(C(C)C)n3)ccc2OC)c2cccc(Cl)c2O1",
    "target-under-test": "ducksalad",
    "answer-label": "yes"
  },
  {
    "compound": "Cc1cccc2c1OC(C(F)(F)F)CN2C(=O)c1ccnc(-n2cnc(C(C)C)n2)c1 (single isomer, unassigned)",
    "target-under-test": "ducksalad",
    "answer-label": "no"
  },
  {
    "compound": "CC(C)c1ncn(-c2cc(C(=O)N3CC(C(F)(F)F)Oc4c(Cl)cccc43)ccn2)n1 (racemic) [Compound 329]",
    "target-under-test": "ducksalad",
    "answer-label": "no"
  },
  {
    "compound": "CC(C)c1ncn(-c2ccc([S+](C)[O-])c(C(=O)N3C[C@H](C)Oc4c(Cl)cccc43)c2)n1 (stereo partly shown)",
    "target-under-test": "ducksalad",
    "answer-label": "no"
  }
]
